tested on: HEK293 NF-kB-luciferase reporter cells; test: NF-kB luciferase reporter activity, robust Z-score vs plate median (robust Z-score (log luminescence)); higher = stronger NF-kB reporter activation; settings: TNF 0 ng/mL; TNF treatment time 8.5 h; transfection time 72 h
Readout Name: NF-kB luciferase reporter activity
Please reply with the value in numeric form only.

So the reported NF-kB luciferase reporter activity for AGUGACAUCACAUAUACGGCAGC , on HEK293 NF-kB-luciferase reporter cells, turned out to be -1.06

So the reported NF-kB luciferase reporter activity for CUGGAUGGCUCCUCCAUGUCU , on HEK293 NF-kB-luciferase reporter cells, turned out to be 0.547

So the reported NF-kB luciferase reporter activity for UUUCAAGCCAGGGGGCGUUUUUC , on HEK293 NF-kB-luciferase reporter cells, turned out to be 0.765

So the reported NF-kB luciferase reporter activity for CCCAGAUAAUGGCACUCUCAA , on HEK293 NF-kB-luciferase reporter cells, turned out to be -0.57

So the reported NF-kB luciferase reporter activity for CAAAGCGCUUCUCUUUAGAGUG , on HEK293 NF-kB-luciferase reporter cells, turned out to be -0.207

So the reported NF-kB luciferase reporter activity for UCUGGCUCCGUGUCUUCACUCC , on HEK293 NF-kB-luciferase reporter cells, turned out to be 0.957

So the reported NF-kB luciferase reporter activity for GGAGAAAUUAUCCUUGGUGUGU , on HEK293 NF-kB-luciferase reporter cells, turned out to be 0.189

So the reported NF-kB luciferase reporter activity for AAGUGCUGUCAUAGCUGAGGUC , on HEK293 NF-kB-luciferase reporter cells, turned out to be -0.706

So the reported NF-kB luciferase reporter activity for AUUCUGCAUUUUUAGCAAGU , on HEK293 NF-kB-luciferase reporter cells, turned out to be 3.61

So the reported NF-kB luciferase reporter activity for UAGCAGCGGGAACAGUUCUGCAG , on HEK293 NF-kB-luciferase reporter cells, turned out to be 0.878

So the reported NF-kB luciferase reporter activity for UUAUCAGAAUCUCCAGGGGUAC , on HEK293 NF-kB-luciferase reporter cells, turned out to be -0.469

So the reported NF-kB luciferase reporter activity for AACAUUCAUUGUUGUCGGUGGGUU , on HEK293 NF-kB-luciferase reporter cells, turned out to be 0.371

So the reported NF-kB luciferase reporter activity for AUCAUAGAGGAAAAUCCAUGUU , on HEK293 NF-kB-luciferase reporter cells, turned out to be -0.92

So the reported NF-kB luciferase reporter activity for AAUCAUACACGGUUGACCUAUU , on HEK293 NF-kB-luciferase reporter cells, turned out to be 0

So the reported NF-kB luciferase reporter activity for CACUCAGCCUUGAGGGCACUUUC , on HEK293 NF-kB-luciferase reporter cells, turned out to be -0.36

So the reported NF-kB luciferase reporter activity for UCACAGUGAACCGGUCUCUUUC , on HEK293 NF-kB-luciferase reporter cells, turned out to be -1.06

So the reported NF-kB luciferase reporter activity for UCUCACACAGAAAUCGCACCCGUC , on HEK293 NF-kB-luciferase reporter cells, turned out to be 0.103

Where these numbers come from: the supplement of paper PMC3621838
